Measured pIC50, listed per entry.
molecular target: aggregated synthetic Aβ40 (Homo sapiens, UniProt P05067); construct: Synthetic Aβ40 is aggregated at a concentration of 50 μM; experiment: Thiazin-red R displacement fluorescence assay on aggregated A-beta; conditions: displacement of Thiazin-red R from aggregated Aβ40; compound 0.3 nM to 10000 nM; 30 min room temperature; Ex 531 nm/Em 595 nm
Sequence (P05067 672-711 limits assumed): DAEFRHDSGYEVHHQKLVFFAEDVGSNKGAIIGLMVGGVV
# reply with the number alone; pIC50 is -log10 of concentration in mol/L

# example entries with known answers
- SMI: "COc1cc(/C=c2\\sc3nc(-c4cc(C)nc(C)c4)cn3c2=O)cc(Br)c1O"
  pIC50: 6.52
- SMI: "COc1cc(/C=c2\\sc3nc(-c4ccc(OC(F)F)cc4)cn3c2=O)cc(Cl)c1O"
  pIC50: 7.85
- SMI: "COc1cc(/C=c2\\sc3nc(-c4cc(C)on4)cn3c2=O)cc(Cl)c1O"
  pIC50: 6.00

Ask: Give aggregated synthetic Aβ40 (Homo sapiens, UniProt P05067) pIC50 for COc1cc(/C=c2\sc3nc(-c4ccc(Cl)cc4)cn3c2=O)cc(Br)c1O
Reply: 7.74

Ask: Kindly state the measured pIC50 obtained for CCCOc1cc(/C=c2\sc3nc(-c4ccsc4)cn3c2=O)cc(Cl)c1O with aggregated synthetic Aβ40 (Homo sapiens, UniProt P05067).
Reply: 6.01

Ask: pIC50 of COc1cc(/C=c2\sc3nc(-c4cccc(N5CCCC5=O)c4)cn3c2=O)cc(Cl)c1O on aggregated synthetic Aβ40 (Homo sapiens, UniProt P05067)?
Reply: 5.41

Ask: Requested read-out pIC50, target or system aggregated synthetic Aβ40 (Homo sapiens, UniProt P05067), entry COc1cc(/C=c2\sc3nc(-c4cccc(CCl)c4)cn3c2=O)cc(Cl)c1O
Reply: 8.05

Ask: Hello, I am looking for reported pIC50 with aggregated synthetic Aβ40 (Homo sapiens, UniProt P05067) for COc1cc(/C=c2\sc3nc(-c4cccc(OC(F)(F)F)c4)cn3c2=O)cc(Br)c1O . Could you help?
Reply: 6.26

----------
target: aggregated synthetic Aβ40 (Homo sapiens, UniProt P05067); construct: Synthetic Aβ40 is aggregated at a concentration of 50 μM; assay: Thiazin-red R displacement fluorescence assay on aggregated A-beta; conditions: displacement of Thiazin-red R from aggregated Aβ40; compound 0.3 nM to 10000 nM; 30 min room temperature; Ex 531 nm/Em 595 nm
ASSAY METRIC: log10(IC50) (log10 of the value in nM)
A value of 2 here means IC50 of 100 in nM, since values are log10.

- COMPOUND: "COc1cc(/C=c2\\sc3nc(-c4ccc(C(=O)N(C)CCCF)cc4)cn3c2=O)cc(F)c1O [Example 147]"
  TEST TARGET: "aggregated synthetic Aβ40 (Homo sapiens, UniProt P05067)"
  log10(IC50): 2.65
- COMPOUND: "COc1cc(/C=c2\\sc3nc(-c4ccc(Cl)cc4)cn3c2=O)cc(F)c1O [Example 4]"
  TEST TARGET: "aggregated synthetic Aβ40 (Homo sapiens, UniProt P05067)"
  log10(IC50): 2.59
- COMPOUND: "COc1cc(/C=c2\\sc3nc(-c4cccc(C#N)c4)cn3c2=O)cc(F)c1O [Example 73]"
  TEST TARGET: "aggregated synthetic Aβ40 (Homo sapiens, UniProt P05067)"
  log10(IC50): 1.11
- COMPOUND: "COc1cc(/C=c2\\sc3nc(-c4ccc(Cl)cc4)cn3c2=O)cc(Cl)c1O [Example 6]"
  TEST TARGET: "aggregated synthetic Aβ40 (Homo sapiens, UniProt P05067)"
  log10(IC50): 1.51

Ask: Reported log10(IC50), compound CCCOc1cc(/C=c2\sc3nc(-c4cnccc4C)cn3c2=O)cc(Cl)c1O [Example 109] : ____
Reply: 3.69

Ask: Given the compound C=CCNC(=O)c1cccc(-c2cn3c(=O)/c(=C/c4cc(Cl)c(O)c(OC)c4)sc3n2)c1 [Example 113] , what is its reported log10(IC50)?
Reply: 3.06

Ask: Which log10(IC50) reading was recorded for the compound COc1cc(/C=c2\sc3nc(-c4ccc5c(c4)OCCO5)cn3c2=O)cc(Cl)c1O [Example 100] ?
Reply: 3.03

Ask: Given COc1cc(/C=c2\sc3nc(-c4ccnc(C)c4)cn3c2=O)cc(Cl)c1O [Example 75] , state its recorded log10(IC50).
Reply: 2.09
